# Target or system: T1, human DLL3 antigen (human, UniProt Q9NYJ7 27-492, limits assumed)
# T1 construct: also called immobilized human DLL3; recombinant human DLL3
# T1 sequence (looked up): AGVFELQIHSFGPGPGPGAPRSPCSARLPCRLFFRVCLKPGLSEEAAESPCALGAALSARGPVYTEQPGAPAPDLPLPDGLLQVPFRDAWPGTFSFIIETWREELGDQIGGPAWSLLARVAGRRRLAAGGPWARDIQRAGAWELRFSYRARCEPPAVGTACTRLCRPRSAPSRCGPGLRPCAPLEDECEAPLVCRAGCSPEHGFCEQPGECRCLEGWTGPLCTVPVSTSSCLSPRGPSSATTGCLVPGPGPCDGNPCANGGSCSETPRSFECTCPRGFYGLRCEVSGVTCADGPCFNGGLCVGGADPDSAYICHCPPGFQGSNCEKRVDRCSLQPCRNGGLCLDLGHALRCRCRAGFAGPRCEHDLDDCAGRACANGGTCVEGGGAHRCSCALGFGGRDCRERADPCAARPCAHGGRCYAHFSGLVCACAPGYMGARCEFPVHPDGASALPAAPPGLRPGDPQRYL
# Experiment: ELISA or flow cytometry screen

Binder	binding result
SC16.58 (antibody, V domains shown, murine mAb) VH: DVQLVESGGGLVQPGGSRKLSCAASGFTFSSFGMHWVRQAPEKGLEWVAYISSGSSNIYYADTVKGRFTISRDNPKNTLFLQMTSLRSEDTAMYYCARGYYGNYDAMDYWGQGTSVTVSS VL: DIQMTQSPASLSSSVGETVTITCRASENIYSYLAWYQQKQGKSPQLLVYNAKTLAEGVPSRFSGSGSGTQFSLKINSLQPEDFGTYYCQHHYDSPLTFGAGTKLELR	binds
SC16.45 (antibody, V domains shown, murine mAb) VH: QVQLQQSGADLVRPGTSVKVSCKASGYSFTNYLIEWVKQRPGQGLEWIGVINPGSGGTHYNEKFKDKAVLTADKSSTTAHMQLSSLTSDDSAVYFCARSPYDYNDGAMDYWGQGTSVTVSS VL: EIQMTQSPSSMSASLGDRITITCQATQDIVKNLNWYQQKPGKPPSFLIYYATELAEGVPARFSGSGSGSDYSLTISNLESEDFADYHCLQFYEFPFTFGAGTKLELK	binds
SC16.10 (antibody, V domains shown, murine mAb) VH: QVTLKESGPGILQSSQTLSLTCSFSGFSLSTSGMGVGWIRQPSGKGLEWLAHIWWDDVKRYNPVLKSRLTISKDTSSSQVFLKIASVDTADTATYYCARLVDDLYYFDYWGQGTTLTVSS VL: QIVLTQSPAIMSASLGERVTMTCTASSSVSSSYLHWYQQKPGSSPKLWIYSTSNLASGVPTRFSGSGSGTSYSLTISSMEAEDAATYYCHQYHRSPFTFGSGTKLEIK	binds

Values from patent US20140370037A1
